# Procedure text: AUC (0 to 24 hrs) in rat at 10 mg/kg, po administered with 1:1 PEG 300/water as vehicle
# Assay type: ADME, organism-based
# Set-up: time < 24 hr, dose 10 mg/kg, route oral
# Recorded conditions: plasma
Assay metric: AUC(0-t) at 24 h
Write the numeric value and follow it with the unit.

// query Fill in: AUC(0-t) at 24 h of CCCNC(=O)c1cn2ncnc(Nc3cc(C(=O)NC4CC4)ccc3C)c2c1C is ___
// result 53.3 µM·h

====

# Procedure text: Aqueous solubility of the compound at pH 3.1
# Assay type: physicochemical
Assay metric: solubility
Value and unit, in that order.

// query Tell me the measured solubility of CCCN(C(=O)OCOC(=O)/C=C/C(=O)O)C(=O)c1cn2ncnc(Nc3cc(C(=O)NC4CC4)ccc3C)c2c1C , please.
// result 105 µg/mL

====

# Procedure text: Half life of the compound at pH 1 at 37 degC by solution stability test
# Type: physicochemical
# Recorded conditions: buffer
Cut-off 8 h on half-life: below means TRUE, at or above means FALSE.

See these solved cases before continuing.
1. CCCN(C(=O)OCOC(=O)/C=C/C(=O)O)C(=O)c1cn2ncnc(Nc3cc(C(=O)NC4CC4)ccc3C)c2c1C	FALSE
2. CCCNC(=O)c1cn2ncnc(N(C(=O)OCOC(=O)[C@H](C)N)c3cc(C(=O)NC4CC4)ccc3C)c2c1C.Cl.Cl	TRUE
3. CCCNC(=O)c1cn2ncnc(Nc3cc(C(=O)N(C(=O)OCOC(=O)[C@H](C)N)C4CC4)ccc3C)c2c1C.Cl	TRUE
4. CCCNC(=O)c1cn2ncnc(N(C(=O)OCOP(=O)(O)O)c3cc(C(=O)NC4CC4)ccc3C)c2c1C	FALSE

// query Please indicate whether the reported half-life of CCCNC(=O)c1cn2ncnc(Nc3cc(C(=O)N(C(=O)OCOC(=O)/C=C/C(=O)O)C4CC4)ccc3C)c2c1C is strictly below 8 h.
// result FALSE

====

For each record, write down the corresponding half-life.
# Procedure text: Half life of the compound at pH 1 at 37 degC by solution stability test
# Format: physicochemical
# Recorded conditions: buffer
Answers are plain numbers, in h.

1) CCCN(C(=O)OCOC(=O)[C@H](C)N)C(=O)c1cn2ncnc(Nc3cc(C(=O)NC4CC4)ccc3C)c2c1C.Cl.Cl	3.2
2) CCCNC(=O)c1cn2ncnc(N(C(=O)OCOC(=O)/C=C/C(=O)O)c3cc(C(=O)NC4CC4)ccc3C)c2c1C	129
3) CCCN(C(=O)OCOP(=O)(O)O)C(=O)c1cn2ncnc(Nc3cc(C(=O)NC4CC4)ccc3C)c2c1C	26.8

Now for another entry.
// query Can you look up the measured half-life of CCCNC(=O)c1cn2ncnc(Nc3cc(C(=O)N(C(=O)OCOP(=O)(O)O)C4CC4)ccc3C)c2c1C for me?
// result 20.5

====

# Procedure text: Tmax in rat at 10 mg/kg, po administered with 1:1 PEG 300/water as vehicle
# Assay type: ADME, organism-based
# Set-up: dose 10 mg/kg, route oral
# Recorded conditions: in vivo
Assay metric: Tmax (h)
Give bare numbers, in h.

// query Bench note: what Tmax did CCCNC(=O)c1cn2ncnc(Nc3cc(C(=O)NC4CC4)ccc3C)c2c1C show?
// result 1
